B1: CPEB3 Ribozyme (parent)
chain: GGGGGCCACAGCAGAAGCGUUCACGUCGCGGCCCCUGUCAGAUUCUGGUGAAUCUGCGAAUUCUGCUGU

Variants of: B1
protocol text: self-cleavage, relative activity (ratio to wild type); higher = more cleavage; co-transcriptional
endpoint: self-cleavage
When you answer, write just the number.

# variant label, self-cleavage
records = [
    ("A15G G58C", 1.01),
    ("C34U G65C", 0.682),
    ("G31A U61G", 0.381),
    ("C39U C54U", 0.853),
    ("U53C C57A", 0.346),
]

GET /values?readout=self-cleavage&item= U46C U64A 0.877

GET /values?readout=self-cleavage&item= G5U U20A 0.0505

GET /values?readout=self-cleavage&item= U36G U61A 0.341

GET /values?readout=self-cleavage&item= C29U C66A 0.235

GET /values?readout=self-cleavage&item= A15G U36G 0.152

GET /values?readout=self-cleavage&item= C57G G58C 0.356

GET /values?readout=self-cleavage&item= U38A U62A 0.648

GET /values?readout=self-cleavage&item= G1C C34A 0.152

GET /values?readout=self-cleavage&item= G19U A42G 0.326
